Molecular target: bovine cardiac myofibrils (full-length cardiac myosin ATPase in the native sarcomere) (Bos taurus (Bovine), UniProt Q9BE39)
Sequence (Q9BE39 whole entry): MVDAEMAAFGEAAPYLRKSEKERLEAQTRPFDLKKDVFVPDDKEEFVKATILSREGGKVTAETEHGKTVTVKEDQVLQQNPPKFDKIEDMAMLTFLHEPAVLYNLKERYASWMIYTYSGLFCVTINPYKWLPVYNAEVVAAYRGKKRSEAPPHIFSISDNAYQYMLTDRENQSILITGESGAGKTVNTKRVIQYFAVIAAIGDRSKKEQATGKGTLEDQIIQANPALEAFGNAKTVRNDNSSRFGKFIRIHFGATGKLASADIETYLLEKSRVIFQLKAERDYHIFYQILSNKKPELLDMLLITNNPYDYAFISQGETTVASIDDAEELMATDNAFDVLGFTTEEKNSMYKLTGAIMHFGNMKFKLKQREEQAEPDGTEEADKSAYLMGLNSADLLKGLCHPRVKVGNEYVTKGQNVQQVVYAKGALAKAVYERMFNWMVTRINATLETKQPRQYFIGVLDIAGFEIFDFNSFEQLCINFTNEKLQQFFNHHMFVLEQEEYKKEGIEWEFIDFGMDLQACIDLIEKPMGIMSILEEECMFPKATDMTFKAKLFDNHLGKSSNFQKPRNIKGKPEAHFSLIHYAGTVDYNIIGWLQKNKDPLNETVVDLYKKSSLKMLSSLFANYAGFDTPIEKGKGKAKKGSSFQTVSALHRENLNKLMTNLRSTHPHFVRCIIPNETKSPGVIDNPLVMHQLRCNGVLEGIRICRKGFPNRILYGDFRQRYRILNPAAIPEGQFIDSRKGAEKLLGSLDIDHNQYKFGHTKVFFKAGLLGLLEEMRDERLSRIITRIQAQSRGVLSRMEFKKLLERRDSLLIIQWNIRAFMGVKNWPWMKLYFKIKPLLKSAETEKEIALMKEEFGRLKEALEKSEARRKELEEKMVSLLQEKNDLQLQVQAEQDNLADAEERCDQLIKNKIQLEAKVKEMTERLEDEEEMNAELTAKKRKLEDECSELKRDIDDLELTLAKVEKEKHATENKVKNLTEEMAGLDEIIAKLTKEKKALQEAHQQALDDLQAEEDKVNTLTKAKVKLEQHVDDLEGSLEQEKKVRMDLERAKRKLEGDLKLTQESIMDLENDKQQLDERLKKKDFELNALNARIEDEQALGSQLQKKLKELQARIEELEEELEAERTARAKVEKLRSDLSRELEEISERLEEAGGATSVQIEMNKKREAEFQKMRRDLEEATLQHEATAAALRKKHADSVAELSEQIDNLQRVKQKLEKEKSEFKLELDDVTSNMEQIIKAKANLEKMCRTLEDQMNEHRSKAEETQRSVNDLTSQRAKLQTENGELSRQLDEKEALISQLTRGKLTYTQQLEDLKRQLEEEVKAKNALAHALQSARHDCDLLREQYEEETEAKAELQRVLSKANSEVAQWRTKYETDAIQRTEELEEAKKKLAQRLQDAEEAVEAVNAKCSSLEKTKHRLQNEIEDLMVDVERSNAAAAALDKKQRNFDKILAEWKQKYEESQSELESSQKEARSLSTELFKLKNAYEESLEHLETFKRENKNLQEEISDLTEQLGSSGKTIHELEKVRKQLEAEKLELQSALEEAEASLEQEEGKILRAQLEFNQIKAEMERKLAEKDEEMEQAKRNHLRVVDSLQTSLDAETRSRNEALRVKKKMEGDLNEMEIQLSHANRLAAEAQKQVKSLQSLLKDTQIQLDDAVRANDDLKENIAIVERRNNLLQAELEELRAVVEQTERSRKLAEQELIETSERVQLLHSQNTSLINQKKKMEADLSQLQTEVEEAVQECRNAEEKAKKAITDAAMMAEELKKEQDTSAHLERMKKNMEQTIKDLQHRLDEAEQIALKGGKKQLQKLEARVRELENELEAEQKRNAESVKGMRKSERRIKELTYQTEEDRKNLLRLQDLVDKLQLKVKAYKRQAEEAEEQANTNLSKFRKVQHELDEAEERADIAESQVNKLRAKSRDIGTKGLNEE
Sequence (P85100 whole entry partner): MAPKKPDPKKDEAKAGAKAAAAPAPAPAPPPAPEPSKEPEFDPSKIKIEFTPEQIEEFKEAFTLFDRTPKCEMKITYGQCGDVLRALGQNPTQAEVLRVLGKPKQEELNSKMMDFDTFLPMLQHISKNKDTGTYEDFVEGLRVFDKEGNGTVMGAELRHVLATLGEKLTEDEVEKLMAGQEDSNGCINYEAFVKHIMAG
Sequence (Q3SZE5 whole entry partner): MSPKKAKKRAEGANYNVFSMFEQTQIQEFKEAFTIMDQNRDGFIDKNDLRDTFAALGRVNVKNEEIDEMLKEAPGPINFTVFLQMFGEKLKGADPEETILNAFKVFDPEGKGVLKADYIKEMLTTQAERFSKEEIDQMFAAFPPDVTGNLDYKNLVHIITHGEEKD
Assay: Skinned bovine cardiac myofibril ATPase assay (PK/LDH-coupled)
Settings: Ca2+ activating to 75% of maximal rate, read-out: CDMF75 IC50
property measured: pIC50
Field pIC50 (float): negative decimal logarithm of the concentration in molar.

IN: Fill blank: measured pIC50 of the compound O=C(N[C@@H]1COc2cc(-c3noc(C(F)F)n3)ccc21)c1cc(CO)ccn1 [Compound 708] is ____.
OUT: 5.55

###

Recorded measurements of pIC50, one per entry
Target: bovine cardiac myofibrils (full-length cardiac myosin ATPase in the native sarcomere) (Bos taurus (Bovine), UniProt Q9BE39)
Assay: Skinned bovine cardiac myofibril ATPase assay (PK/LDH-coupled)
Conditions: Ca2+ activating to 75% of maximal rate, read-out: CDMF75 IC50
Field pIC50 (float): negative decimal logarithm of the concentration in molar.

compound | pIC50
CCc1nc(-c2ccc3c(c2)CC[C@H]3NC(=O)c2cnn(C3COC3)c2)no1 [Compound 470] | 4.77
Cn1nnc(C(=O)N[C@@H]2CCc3cc(-c4noc(C5CCC5)n4)ccc32)n1 [Compound 143] | 6.00
Cn1cc(C(=O)N[C@@H]2COc3cc(-c4noc(C(F)F)n4)ccc32)cn1 [Compound 218] | 5.80

IN: Fill blank: measured pIC50 of the compound C=Cc1nc(-c2ccc3c(c2)CC[C@H]3NC(=O)c2cnn(C)c2)no1 [Compound 547] is ____.
OUT: 5.82

IN: Record: Cc1cc(-c2ccc3c(c2)CC[C@H]3NC(=O)c2nnn(C)n2)no1 [Compound 252]
OUT: 5.82

IN: Record: O=C(N[C@@H]1CCc2cc(-c3noc(C4CC4)n3)ccc21)c1cnn(CCO)c1 [Compound 521]
OUT: 5.30

IN: Record: CCc1nc(-c2ccc3c(c2)CC[C@H]3NC(=O)c2cnn(CC(C)(C)O)c2)no1 [Compound 476]
OUT: 4.71

IN: Record: COCCn1cc(C(=O)N[C@@H]2CCc3cc(-c4noc(C5CC5)n4)ccc32)cn1 [Compound 510]
OUT: 5.10
